Biological target: wt bradavidin (Bradyrhizobium diazoefficiens)
Sequence (Q89IH6 26-163): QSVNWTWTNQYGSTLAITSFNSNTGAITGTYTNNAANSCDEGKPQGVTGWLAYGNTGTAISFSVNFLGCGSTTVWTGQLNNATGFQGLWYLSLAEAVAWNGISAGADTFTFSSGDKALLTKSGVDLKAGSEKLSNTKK
reported.endpoint: pKd
Give bare numbers, as −log10 of the molar value.

Entry `O=C(O)CCCC[C@@H]1SC[C@@H]2NC(=O)N[C@@H]21` : reported pKd = ? 6.52
